test system: D54 LucT luciferase reporter counterscreen, luminescence, 24 h; test: reporter signal increase, D54 LucT cells – cell-based, luminescence, cherry pick, counter-screen for N-linked glycosylation inhibitor project, dose response (AID 624404)
Records with an inconclusive call do not appear.
Consider the following molecules; for each one, report its AC35.

Input line: Suppose we examine the molecule "CCc1ccc(OCC(=O)Nc2ccc(-c3cc4ccccc4oc3=O)c(OC)c2)cc1" ; what AC35 value has been reported?
Output line: 0.734 µM

Input line: And then "COc1ccc2c(c1)C(=O)N1[C@H]3c4cc(C)ccc4OC[C@@H]3[C@H](c3ccccc3)[C@]1(C)C(=O)N2" , what is it?
Output line: 0.933 µM

Input line: Repeat for the following molecule: "CC(=O)c1c(C)[nH]c(C(=O)Nc2cccc(S(=O)(=O)N3CCCC3)c2)c1C"
Output line: 3.95 µM

Input line: Then COc1ccccc1-c1csc(C(NC(C)=O)c2ccc(F)c(F)c2)n1 (stereo not given) ?
Output line: 0.42 µM

Input line: Let us now turn to C=CCn1c(SCc2c(C)noc2C)nc2sc3c(c2c1=O)CCC(C)C3 (stereo not given)
Output line: 0.238 µM

Input line: What about "C[C@H](CO)N1C[C@H](C)[C@@H](CN(C)S(=O)(=O)c2ccccc2)Oc2c(NC(=O)Cc3ccccc3)cccc2C1=O" ?
Output line: 2.24 µM

Input line: Repeat for the following molecule: "O=C(c1cccs1)N1CCC(c2nc3c(nnn3Cc3cccc(Cl)c3)c(=O)[nH]2)CC1"
Output line: 0.174 µM

Input line: Consider next the molecule "CCn1c(=O)c2cc(C(=O)NCCCOC)sc2c2ccccc21" in the same way.
Output line: 0.177 µM

Input line: Request: "Nc1nc(-c2ccccc2)cc(-c2ccccc2O)n1"
Output line: 1.76 µM

Input line: Also, "Cc1nn(-c2ccccc2)c(Cl)c1/C=N/Nc1nc2ccccc2[nH]1" please.
Output line: 0.0235 µM

---

system: D54 LucT luciferase reporter counterscreen, luminescence, 24 h; assay: reporter signal increase, D54 LucT cells – cell-based, luminescence, cherry pick, counter-screen for N-linked glycosylation inhibitor project, dose response (AID 624404)
Results filed as inconclusive are left out. Calls of active or inactive are those of the source.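 Rule for the calls: active = luciferase signal rise whose fitted curve crosses a set activity limit at or below the top valid tested dose; inconclusive = flat fit with 30 to 70% rise, or poor fit; inactive = signal falling, flat within 30%, or crossing above top dose.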
Permitted responses: TRUE (active), FALSE (inactive)

Input line: Could you check what this test reported for "Cc1ccc2c(c1)C(=O)N1[C@H]3c4cc(C)ccc4OC[C@@H]3[C@H](c3ccccc3)[C@]1(C)C(=O)N2" ?
Output line: TRUE

Input line: Next up: "C=CCOc1ccc(/C=C2\SC(N3CCCCC3)=NC2=O)cc1"
Output line: TRUE

Input line: Same for "COc1cc(/C=C(/C(=O)c2cccs2)c2nc3ccccc3[nH]2)cc(OC)c1O"
Output line: TRUE

Input line: Same question for "O=C(C=Cc1cccc(O)c1)c1ccccc1O" please.
Output line: TRUE

Input line: Likewise for "Cc1ccc(C(=O)N/C(=C/c2ccco2)C(=O)NCCc2c[nH]c3ccccc23)cc1" ?
Output line: TRUE

Input line: Repeat for the following compound: "COc1cc(C(=O)NC2CCN(C)CC2)ccc1Nc1ncc2c(n1)N(CCc1ccccc1)CCC(=O)N2C"
Output line: TRUE

Input line: Likewise for "CSc1ccc(/C=N/NC(=O)c2ccccc2Cl)cc1" ?
Output line: TRUE

Input line: Follow-up entry: "COc1ccc(/C=C/C(=O)c2ccc(Cl)s2)cc1O"
Output line: TRUE

Input line: Same question for "COc1cc(C(=O)Nc2ccc3c(c2)nc(C)n3C)cc(OC)c1OC" please.
Output line: TRUE

Input line: And then "CCCC(=O)Nc1nc2ccc(NC(=O)c3c(F)c(F)c(OC)c(F)c3F)cc2s1" , what is it?
Output line: TRUE

Input line: Ok, now "Oc1[nH]c(N=C2N=c3ccccc3=N2)c2ccccc12"
Output line: TRUE

Input line: Same lookup for "COc1ccc(C(=O)/C=C/c2ccccc2)c(O)c1" , please.
Output line: TRUE

Input line: Now this one: "COc1ccc(-c2oc3cc(O)c(OC)c(O)c3c(=O)c2OC)cc1O"
Output line: TRUE

Input line: Try the compound "COc1ccccc1N1CC(O)=C(c2nc3ccccc3c(=O)[nH]2)C1=N"
Output line: TRUE

Input line: Can you check "COC(=O)Nc1nc2ccc(-c3n[nH]c(=O)c4ccccc34)cc2[nH]1" next?
Output line: TRUE

Input line: Okay, and "COc1ccc(CNC(=O)c2cccc3c(-c4cccnc4)coc23)cc1OC" ?
Output line: TRUE

Input line: How about this compound: "O=C(C[C@@H]1C/C=C/CC[C@H](Cc2ccc(F)cc2)C(=O)OC[C@@H](Cc2ccccc2)NC1=O)N[C@H](CO)Cc1ccccc1"
Output line: TRUE

Input line: Could you do the same for "C=CCn1c(SCc2c(C)noc2C)nc2sc(C)c(C)c2c1=O" , please?
Output line: TRUE

Input line: Again, but for "Cc1cnc2cc(Cl)c(Cl)cc2n1"
Output line: TRUE

Input line: Then what about the compound "COc1ccc2nc(C)cc(Nc3ccc(N4CCN(C)CC4)cc3)c2c1" ?
Output line: TRUE

Input line: How about this compound: "CCCCn1c(SCc2c(C)noc2C)nc2cc(S(N)(=O)=O)ccc21"
Output line: TRUE

Input line: Another compound: "CNC(=O)c1cccc(NC(=O)c2ccccc2OCc2ccccc2)c1"
Output line: TRUE

Input line: Now the same for "COc1cccc(/C=N/NC(=O)c2cc3c(OC)c(OC)ccc3[nH]2)c1OC"
Output line: TRUE

Input line: Another compound to look at: NC(=O)CC(NC(=O)Cc1ccc(Br)cc1)c1ccc(NC2CCC2)c([N+](=O)[O-])c1 (configuration not stated)
Output line: TRUE

Input line: Next up: CCC(c1nc2ccccc2c(=O)n1-c1nc2ccccc2s1)N1C(=O)c2ccccc2C1=O (configuration not stated)
Output line: TRUE

Input line: What would you report for "COc1cc(/C=N/n2cnc3scc(-c4cccs4)c3c2=O)cc(OC)c1OC" ?
Output line: TRUE

Input line: // same read-out, input: "Cc1nnc2n(c1=O)N=C(c1ccc(Cl)cc1)CS2"
Output line: TRUE

Input line: Subsequent entry: "CCOC(=O)n1c(=O)n(Cc2ccc(OC)cc2)c2ccccc21"
Output line: FALSE

Input line: Field entry: CC(CC(=O)Nc1ccc2c(c1)c(=O)n(C)n2-c1cccs1)c1ccccc1 (configuration not stated)
Output line: TRUE

Input line: What about "COc1ccccc1NS(=O)(=O)c1ccc(-c2cc(C)no2)s1" ?
Output line: TRUE

Input line: # iterate: "CCc1ccc(N2C(=O)NC(=O)/C(=C\C=C\c3ccco3)C2=O)cc1"
Output line: TRUE

Input line: Field entry: "COc1ccc(CC(=O)N(Cc2ccccc2)c2ccc(C)cc2)cc1OC"
Output line: TRUE
